- measured.on: Nuclear receptor subfamily 1 group I member 3 (Homo sapiens) (UniProt Q14994)
- Sequence (Q14994 whole entry, looked up): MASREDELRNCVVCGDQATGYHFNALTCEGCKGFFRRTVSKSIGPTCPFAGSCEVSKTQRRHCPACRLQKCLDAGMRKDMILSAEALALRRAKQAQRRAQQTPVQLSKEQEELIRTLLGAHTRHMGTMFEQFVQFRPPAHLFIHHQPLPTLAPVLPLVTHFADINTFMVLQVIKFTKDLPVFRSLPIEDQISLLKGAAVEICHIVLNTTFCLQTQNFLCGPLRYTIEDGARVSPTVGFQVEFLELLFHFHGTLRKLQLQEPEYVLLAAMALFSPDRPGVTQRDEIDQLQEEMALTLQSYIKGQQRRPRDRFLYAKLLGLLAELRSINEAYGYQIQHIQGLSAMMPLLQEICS
- experimental.protocol: qHTS assay to identify small molecule agonists of the constitutive androstane receptor (CAR) signaling pathway (AID 1224839);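 further: HepG2 cells stably carrying human CAR and a CYP2B6 luciferase reporter; on the % scale 0 is the no-effect control and ±100 the full control effect; nearly all actives have a fitted effect of over 15% in size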
- condition.info: HepG2 hCAR CYP2B6-luciferase, agonist mode, 24 h; series mostly up to 92.4 µM
- Excerpt: National Center for Advancing Translational Sciences [NCATS] NIH Chemical Genomics Center [NCGC] U.S. Environmental Protection Agency [EPA] National Institutes of Environmental Health Sciences [NIEHS] National Toxicology Program [NTP] […] Assay Protocol Summary: A double-stable (hCAR and CYP2B6-2.2kb) transfected cell line, derived from human hepatoma (HepG2) cells, was utilized for the duration of the quantitative high-throughput screens. […]
Results filed as inconclusive are left out. Active and inactive are the calls of the source. The call rests on the fitted dose curve; in most records, active means well fitted activation curve with a large enough effect in the repeat runs; inconclusive means weak or mixed curves; inactive means no such curve, though single readings can be large or run the other way.
Give one outcome, nothing more. List: 1.0 = active, 0.0 = inactive

Solved entries:
Nc1cc(Cl)c(-c2cc(Cl)c(N)cc2Cl)cc1Cl :: 0.0
COC(=O)/C=C/c1ccccc1 :: 0.0
Nc1nc(=S)c2[nH]cnc2[nH]1 :: 0.0

Please indicate how the test categorized CCCCC/C=C/CC1CC(=O)OC1=O (configuration not stated) . 0.0

Query: recorded result category for Cc1ccnc2c1NC(=O)c1cccnc1N2C1CC1 in this test 0.0

###

- experimental.protocol: qHTS assay to identify small molecule antagonists of the peroxisome proliferator-activated receptor gamma (PPARg) signaling pathway - cell viability counter screen (AID 743194); further: on the % scale 0 is the no-effect control and ±100 the full control effect; nearly all actives have a fitted effect of over 55% in size
- condition.info: PPARg-bla HEK293H viability, CellTiter-Glo luminescence, 17 h, co-treated with 50 nM rosiglitazone; series mostly up to 62.6 µM
Records with an inconclusive call do not appear. Calls of active or inactive are those of the source. Calls come from the whole dose curve; as a rule, active = well fitted cell-killing curve with a large enough effect in the repeat runs; inconclusive = weak or mixed curves, or effect the other way; inactive = no such curve, though single readings can be large or run the other way.
value.kind: outcome

COc1nc(C)nc(Cl)c1NC1=NCCN1 :: inactive
O=C(O)CP(=O)(O)O :: inactive
Cc1occc(=O)c1OC(=O)C(C)C :: inactive
Cc1ccnc2c1NC(=O)c1cccnc1N2C1CC1 :: inactive
CC[C@]1(O)C[C@@H]2CN(CCc3c([nH]c4ccccc34)[C@@](C(=O)OC)(c3cc4c(cc3OC)N(C)[C@H]3[C@@](O)(C(=O)OC)[C@H](OC(C)=O)[C@]5(CC)C=CCN6CC[C@]43[C@@H]65)C2)C1 :: inactive

Provide one value: measured outcome of CC(=O)OCCOCCOCCOC(C)=O inactive

###

- measured.on: Vitamin D3 receptor (Homo sapiens) (UniProt P11473)
- Sequence (P11473 whole entry, looked up): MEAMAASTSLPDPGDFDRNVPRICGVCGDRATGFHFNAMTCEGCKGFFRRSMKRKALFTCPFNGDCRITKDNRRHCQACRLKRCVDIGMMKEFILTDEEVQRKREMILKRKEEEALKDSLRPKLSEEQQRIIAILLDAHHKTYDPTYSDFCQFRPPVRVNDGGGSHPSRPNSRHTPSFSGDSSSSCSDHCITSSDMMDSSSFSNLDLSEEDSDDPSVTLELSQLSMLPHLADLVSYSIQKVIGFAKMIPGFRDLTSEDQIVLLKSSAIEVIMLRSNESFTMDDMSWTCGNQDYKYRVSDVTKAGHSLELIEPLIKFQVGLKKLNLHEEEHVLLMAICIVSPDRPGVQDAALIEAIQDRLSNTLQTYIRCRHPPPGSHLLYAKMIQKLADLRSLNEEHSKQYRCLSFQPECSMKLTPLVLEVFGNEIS
- experimental.protocol: qHTS assay to identify small molecule antagonists of the vitamin D receptor (VDR) signaling pathway (AID 743223); further: on the % scale 0 is the no-effect control and ±100 the full control effect
- condition.info: VDR-UAS-bla HEK293T, beta-lactamase FRET ratio, 16 h; series mostly up to 61 µM
Records with an inconclusive call do not appear. Activity calls are given as the source filed them. Calls come from the whole dose curve; as a rule, active = well fitted inhibition curve with a large enough effect in the signal ratio in the repeat runs (not every such curve was filed as active); inconclusive = weak or mixed curves, or effect the other way; inactive = no such curve, though single readings can be large or run the other way; the % refers to the signal ratio.
value.kind: outcome

CCc1ccc(C(c2ccc(CC)cc2)C(Cl)Cl)cc1 :: inactive
CC(=O)OCCOCCOCCOC(C)=O :: inactive
C=C(C)C(=O)O :: inactive
CCC(=O)/C=C/C1C(C)=CCCC1(C)C (stereo not given) :: inactive
CCCCC/C=C/CC1CC(=O)OC1=O (stereo not given) :: inactive
Cc1scc2c1N(C(=O)CN1CCN(C)CC1)c1ccccc1NC2=O :: inactive
N[C@@H]1CONC1=O :: inactive
C=CC(=O)OCCCCCCCC :: inactive
O=C(Cl)c1cccc(C(=O)Cl)c1 :: inactive

Now let's try a different one.
Name the recorded outcome of the item CC(COc1ccccc1)N(CCCl)Cc1ccccc1 (stereo not given) in your answer. inactive

The reported measurements were obtained from PubChem BioAssay (Tox21).
